Molecular target: Neurogenic locus notch homolog protein 2 (Homo sapiens) (UniProt Q04721)
Sequence (Q04721 whole entry, looked up): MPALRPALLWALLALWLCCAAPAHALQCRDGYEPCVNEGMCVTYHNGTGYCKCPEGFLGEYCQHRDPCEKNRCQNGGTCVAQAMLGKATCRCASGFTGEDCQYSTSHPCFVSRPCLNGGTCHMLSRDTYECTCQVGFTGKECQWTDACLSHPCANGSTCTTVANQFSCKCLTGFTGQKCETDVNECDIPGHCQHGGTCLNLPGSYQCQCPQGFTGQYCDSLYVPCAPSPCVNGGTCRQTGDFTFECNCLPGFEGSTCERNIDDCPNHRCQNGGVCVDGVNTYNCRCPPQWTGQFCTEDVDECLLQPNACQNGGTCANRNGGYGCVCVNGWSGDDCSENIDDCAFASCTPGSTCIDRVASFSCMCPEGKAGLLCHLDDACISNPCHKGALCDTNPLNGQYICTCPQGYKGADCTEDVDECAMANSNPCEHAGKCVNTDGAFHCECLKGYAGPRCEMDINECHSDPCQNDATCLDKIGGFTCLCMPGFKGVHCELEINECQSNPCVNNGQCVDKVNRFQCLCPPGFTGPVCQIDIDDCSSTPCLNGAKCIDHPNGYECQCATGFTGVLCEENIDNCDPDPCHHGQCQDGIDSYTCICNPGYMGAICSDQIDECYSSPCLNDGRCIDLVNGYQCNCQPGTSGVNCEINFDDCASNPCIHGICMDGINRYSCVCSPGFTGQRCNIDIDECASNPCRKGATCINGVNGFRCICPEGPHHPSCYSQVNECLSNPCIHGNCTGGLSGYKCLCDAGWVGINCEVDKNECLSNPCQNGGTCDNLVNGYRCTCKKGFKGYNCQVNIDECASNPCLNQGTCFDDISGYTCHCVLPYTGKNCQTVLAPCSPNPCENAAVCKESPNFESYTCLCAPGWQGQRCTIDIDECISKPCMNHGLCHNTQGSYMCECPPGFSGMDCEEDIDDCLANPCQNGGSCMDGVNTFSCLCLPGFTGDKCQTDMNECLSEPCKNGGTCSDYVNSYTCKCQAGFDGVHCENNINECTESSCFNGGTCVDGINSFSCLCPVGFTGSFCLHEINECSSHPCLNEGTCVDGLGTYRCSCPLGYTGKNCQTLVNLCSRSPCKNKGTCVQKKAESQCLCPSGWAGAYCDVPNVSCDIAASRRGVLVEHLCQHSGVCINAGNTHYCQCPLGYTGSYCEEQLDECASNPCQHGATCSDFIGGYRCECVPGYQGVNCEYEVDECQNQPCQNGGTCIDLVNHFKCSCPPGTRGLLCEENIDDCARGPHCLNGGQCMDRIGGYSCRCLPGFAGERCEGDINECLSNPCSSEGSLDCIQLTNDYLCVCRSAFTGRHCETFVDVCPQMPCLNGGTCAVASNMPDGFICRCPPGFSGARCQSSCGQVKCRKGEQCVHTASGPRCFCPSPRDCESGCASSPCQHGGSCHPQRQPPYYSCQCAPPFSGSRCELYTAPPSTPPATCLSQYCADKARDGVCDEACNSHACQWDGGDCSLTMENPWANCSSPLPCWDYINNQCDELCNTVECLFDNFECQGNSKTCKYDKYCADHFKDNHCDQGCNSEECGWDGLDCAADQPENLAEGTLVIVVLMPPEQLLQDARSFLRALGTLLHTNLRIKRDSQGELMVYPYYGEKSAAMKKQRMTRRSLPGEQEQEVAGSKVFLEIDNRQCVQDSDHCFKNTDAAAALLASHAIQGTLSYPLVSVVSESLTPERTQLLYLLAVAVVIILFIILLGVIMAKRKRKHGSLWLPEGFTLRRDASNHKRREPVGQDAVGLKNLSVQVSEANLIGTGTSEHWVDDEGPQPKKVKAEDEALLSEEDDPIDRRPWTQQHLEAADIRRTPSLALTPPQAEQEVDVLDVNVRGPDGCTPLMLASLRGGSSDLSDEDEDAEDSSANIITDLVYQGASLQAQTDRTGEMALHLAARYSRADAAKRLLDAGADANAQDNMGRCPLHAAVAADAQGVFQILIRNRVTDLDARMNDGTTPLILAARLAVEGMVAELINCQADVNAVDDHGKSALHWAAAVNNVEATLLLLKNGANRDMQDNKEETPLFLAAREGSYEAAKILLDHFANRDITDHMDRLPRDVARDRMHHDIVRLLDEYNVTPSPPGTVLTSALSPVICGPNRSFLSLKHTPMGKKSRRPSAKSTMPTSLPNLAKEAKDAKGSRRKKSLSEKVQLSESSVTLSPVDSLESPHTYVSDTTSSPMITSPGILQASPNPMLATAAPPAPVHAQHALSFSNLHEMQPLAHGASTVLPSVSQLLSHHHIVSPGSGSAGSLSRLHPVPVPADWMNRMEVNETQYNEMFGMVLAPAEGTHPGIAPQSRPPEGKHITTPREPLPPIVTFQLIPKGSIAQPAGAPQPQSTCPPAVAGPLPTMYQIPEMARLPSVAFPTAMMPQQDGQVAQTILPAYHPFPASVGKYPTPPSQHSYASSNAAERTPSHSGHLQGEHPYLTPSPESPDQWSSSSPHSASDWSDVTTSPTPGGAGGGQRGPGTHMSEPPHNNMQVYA
Test: Notch2 binders on small-molecule microarrays, primary screen, biochemical, small-molecule microarray, 635 nm fluorescence, stem cell growth factors (AID 1073)
Settings: Notch2 binding, higher = more signal
Given measured composite z-score, output rule met if it is greater than or equal to 0.08 and rule not met if not.

Some solved cases for reference:
CO[C@H]1COC(=O)[C@@H](Cc2ccccc2)NC(=O)[C@@H](C)COC(=O)CC=C[C@@H]1C; rule not met
CC(=O)NCCCC[C@@H]1NC(=O)[C@H]2C[C@@H](C(=O)NCCCCCCN(C)C)[C@@H](c3ccc(O)cc3)N2C1=O; rule met
C[C@@H]1CC[C@H]2C(=O)N3[C@@H](CC[C@@H](C)[C@@H]3c3cccc(N4CCOCC4)c3)C(=O)N2[C@H]1c1cccc(N2CCOCC2)c1; rule met

In: Please tell me: is the molecule C=CC[C@@]12N=C(c3ccc(OCCCO)cc3)O[C@@H]1c1ccccc1CN(Cc1ccccc1)C2=O at or over 0.08 in terms of composite z-score?
Out: rule met

In: Please tell me: is the molecule C[N+](C)(C)CCCCNC(=O)[C@H]1C[C@H]2C(=O)NCC(=O)N2[C@H]1c1cccc(OCCO)c1 at or over 0.08 in terms of composite z-score?
Out: rule met

In: Please tell me: is the molecule CO[C@H]1COC(=O)[C@H](Cc2ccccc2)NC(=O)CC=C[C@@H](C)[C@H](OC)COC(=O)CC=C[C@@H]1C at or over 0.08 in terms of composite z-score?
Out: rule not met

In: Please tell me: is the molecule O=C1OCC=C[C@H]2OC34C=CCN(Cc5ccccc5)C(=O)[C@H]3N(CCCCCO)C(=O)[C@@H]4[C@@H]12 (some centres not stated) at or over 0.08 in terms of composite z-score?
Out: rule not met

Value source: PubChem BioAssay
